Species: Rattus norvegicus
Experiment: Potency for [Ca2+] release in rat hepatocytes with respect to compound 2
Details: Hepatocyte

{"columns": ["Compound", "relative potency"],
 "data": [
  ["O=P(O)(O)OC1[C@@H](OP(=O)(O)O)C(CO)O[C@@H](O[C@@H]2[C@H](OP(=O)(O)O)C(n3cnc4c(NC5CCCC5)ncnc43)O[C@@H]2CO)[C@H]1O (stereo partly drawn)", 0.77],
  ["O=P(O)(O)OC1[C@@H](OP(=O)(O)O)C(CO)O[C@@H](O[C@@H]2[C@H](OP(=O)(O)O)C(n3cnc4c(NC5CCCCC5)ncnc43)O[C@@H]2CO)[C@H]1O (stereo partly drawn)", 0.56],
  ["Nc1ncnc2c1ncn2C1O[C@H](CO)[C@H](O[C@@H]2OC(CO)[C@H](OP(=O)(O)O)C(OP(=O)(O)O)[C@@H]2O)[C@@H]1OP(=O)(O)O (stereo partly drawn)", 1],
  ["COc1ncnc2c1ncn2C1O[C@H](CO)[C@H](O[C@@H]2OC(CO)[C@H](OP(=O)(O)O)C(OP(=O)(O)O)[C@@H]2O)[C@@H]1OP(=O)(O)O (stereo partly drawn)", 0.57],
  ["O=P(O)(O)O[C@@H]1[C@H](O)[C@H](O)[C@@H](OP(=O)(O)O)[C@H](OP(=O)(O)O)[C@H]1O", 0.08],
  ["CNc1nc(OC)nc2c1ncn2C1O[C@H](CO)[C@H](O[C@@H]2OC(CO)[C@H](OP(=O)(O)O)C(OP(=O)(O)O)[C@@H]2O)[C@@H]1OP(=O)(O)O (stereo partly drawn)", 0.17],
  ["CNc1ncnc2c1ncn2C1O[C@H](CO)[C@H](O[C@@H]2OC(CO)[C@H](OP(=O)(O)O)C(OP(=O)(O)O)[C@@H]2O)[C@@H]1OP(=O)(O)O (stereo partly drawn)", 0.8],
  ["CN(C)c1ncnc2c1ncn2C1O[C@H](CO)[C@H](O[C@@H]2OC(CO)[C@H](OP(=O)(O)O)C(OP(=O)(O)O)[C@@H]2O)[C@@H]1OP(=O)(O)O (stereo partly drawn)", 0.82]
]}

The origin of these recorded values is ChEMBL document CHEMBL1145999.
